CONDITION_LABEL: in ethanol, 288.42 K
READOUT_TYPE: solubility (mole fraction)
// no unit, no text: just the number

Look up solubility (mole fraction): CO/N=C(\C(=O)O)c1csc(N)n1
8.31e-05

---

CONDITION_LABEL: in methanol, 288.17 K
READOUT_TYPE: solubility (mole fraction)
Please give only the number in your answer, with no unit.

Which solubility (mole fraction) value is on record for CO/N=C(\C(=O)O)c1csc(N)n1 ?
0.000334

---

CONDITION_LABEL: in n-propanol, 282.85 K
READOUT_TYPE: solubility (mole fraction)
# answer = number (no unit)

I have this molecule here, CO/N=C(\C(=O)O)c1csc(N)n1 , and I need its recorded solubility (mole fraction).
2.14e-05
